The reported measurements were obtained from patent US11713335B2.

test system: WT E. coli; experiment: Minimal inhibitory concentration in wild-type E. coli; format: cell-based, Escherichia coli; details: wild-type E. coli, 37° C., 16 hours; read-out: MIC (μM) in WT E. coli
observedProperty: MIC (µM)
Only the number, expressed in µM, is required.

Solved entries:
Q. Query MIC for CO[C@@H]1[C@@H](OC(N)=O)[C@@H](O)[C@H](Oc2ccc3c(O)c(NC(=O)c4cccc(-c5cccc(C(C)C)c5)c4)c(=O)oc3c2C)OC1(C)C [Compound 61]
A. 59

Q. Query MIC for CCc1ccc(-c2cccc(C(=O)Nc3c(O)c4ccc(O[C@@H]5OC(C)(C)[C@H](OC)[C@@H](OC(N)=O)[C@H]5O)c(C)c4oc3=O)c2)cc1 [Compound 54]
A. 40

Q. Query MIC for CO[C@@H]1[C@@H](OC(N)=O)[C@@H](O)[C@H](Oc2ccc3c(O)c(NC(=O)c4cccc(-c5cccc(OC(F)(F)F)c5)c4)c(=O)oc3c2C)OC1(C)C [Compound 58]
A. 89

New cases:
Q. Query MIC for COc1ccccc1-c1cccc(C(=O)Nc2c(O)c3ccc(O[C@@H]4OC(C)(C)[C@H](OC)[C@@H](OC(N)=O)[C@H]4O)c(C)c3oc2=O)c1 [Compound 50]
A. 40

Q. Query MIC for CO[C@@H]1[C@@H](OC(N)=O)[C@@H](O)[C@H](Oc2ccc3c(O)c(NC(=O)c4ccc(CCc5ccccc5)cc4)c(=O)oc3c2C)OC1(C)C [Compound 77]
A. 40

###

test system: S. aureus MW2; experiment: Minimal inhibitory concentration, S. aureus MW2; format: cell-based; conditions: Staphylococcus aureus, MRSA, 16 h, 16 hour minimal inhibitory concentration at 37° C.; read-out: MIC (μM) S. aureus MW2 (MRSA)
# reported log10(MIC); entries follow
Heads up, the numbers here are log10 of MIC in µM units.

Solved entries:
Q. Query log10(MIC) for CO[C@@H]1[C@@H](OC(N)=O)[C@@H](O)[C@H](Oc2ccc3c(O)c(NC(=O)c4cc5ccccc5o4)c(=O)oc3c2C)OC1(C)C [Compound 6]
A. 1.94

Q. Query log10(MIC) for COc1ccc(C(=O)Nc2c(O)c3ccc(O[C@@H]4OC(C)(C)[C@H](OC)[C@@H](OC(N)=O)[C@H]4O)c(C)c3oc2=O)cc1Oc1ccccc1 [Compound 256]
A. 1.28

Q. Query log10(MIC) for CO[C@@H]1[C@@H](OC(N)=O)[C@@H](O)[C@H](Oc2ccc3c(O)c(NC(=O)c4cccc(-c5c(C)cccc5C)c4)c(=O)oc3c2C)OC1(C)C [Compound 21]
A. 1.00

Q. Query log10(MIC) for CO[C@@H]1[C@@H](OC(N)=O)[C@@H](O)[C@H](Oc2ccc3c(O)c(NC(=O)c4ccc(Br)cc4)c(=O)oc3c2C)OC1(C)C [Compound 204]
A. 1.91

Q. Query log10(MIC) for CO[C@@H]1[C@@H](OC(N)=O)[C@@H](O)[C@H](Oc2ccc3c(O)c(NC(=O)c4cccc(-c5cccnc5)c4)c(=O)oc3c2C)OC1(C)C [Compound 29]
A. 1.92

Q. Query log10(MIC) for CO[C@@H]1[C@@H](OC(N)=O)[C@@H](O)[C@H](Oc2ccc3c(O)c(NC(=O)c4ccc(O)c(CC=C(C)C)c4)c(=O)oc3c2C)OC1(C)C [Novobiocin, novobiocin, reference compound]
A. -0.60

Q. Query log10(MIC) for CO[C@@H]1[C@@H](OC(N)=O)[C@@H](O)[C@H](Oc2ccc3c(O)c(NC(=O)c4ccc(I)cc4)c(=O)oc3c2C)OC1(C)C [Compound 225]
A. 1.58

Q. Query log10(MIC) for C#Cc1cccc(C(=O)Nc2c(O)c3ccc(O[C@@H]4OC(C)(C)[C@H](OC)[C@@H](OC(N)=O)[C@H]4O)c(C)c3oc2=O)c1 [Compound 229]
A. 1.95

Q. Query log10(MIC) for CO[C@@H]1[C@@H](OC(N)=O)[C@@H](O)[C@H](Oc2ccc3c(O)c(NC(=O)c4cccc(Oc5ccc(F)cc5)c4)c(=O)oc3c2C)OC1(C)C [Compound 249]
A. 1.30

Q. Query log10(MIC) for CO[C@@H]1[C@@H](OC(N)=O)[C@@H](O)[C@H](Oc2ccc3c(O)c(NC(=O)c4cccc(Oc5ccccc5C)c4)c(=O)oc3c2C)OC1(C)C [Compound 220]
A. 1.00

New cases:
Q. Query log10(MIC) for COc1cccc(OC)c1C(=O)Nc1c(O)c2ccc(O[C@@H]3OC(C)(C)[C@H](OC)[C@@H](OC(N)=O)[C@H]3O)c(C)c2oc1=O [Compound 10]
A. 1.93

Q. Query log10(MIC) for CO[C@@H]1[C@@H](OC(N)=O)[C@@H](O)[C@H](Oc2ccc3c(O)c(NC(=O)c4ccccc4-c4ccccc4)c(=O)oc3c2C)OC1(C)C [Compound 40]
A. 1.61

Q. Query log10(MIC) for CO[C@@H]1[C@@H](OC(N)=O)[C@@H](O)[C@H](Oc2ccc3c(O)c(NC(=O)c4cccc(Oc5ccc(C#N)cc5)c4)c(=O)oc3c2C)OC1(C)C [Compound 242]
A. 1.89

Q. Query log10(MIC) for CO[C@@H]1[C@@H](OC(N)=O)[C@@H](O)[C@H](Oc2ccc3c(O)c(NC(=O)c4cccc(-c5ccc(Br)cc5)c4)c(=O)oc3c2C)OC1(C)C [Compound 68]
A. -0.04

Q. Query log10(MIC) for CO[C@@H]1[C@@H](OC(N)=O)[C@@H](O)[C@H](Oc2ccc3c(O)c(NC(=O)c4cccc(-c5ccc(I)cc5)c4)c(=O)oc3c2C)OC1(C)C [Compound 34]
A. -0.37

Q. Query log10(MIC) for C#CCOc1cccc(C(=O)Nc2c(O)c3ccc(O[C@@H]4OC(C)(C)[C@H](OC)[C@@H](OC(N)=O)[C@H]4O)c(C)c3oc2=O)c1 [Compound 230]
A. 1.93

###

test system: S. aureus MW2; experiment: Minimal inhibitory concentration, S. aureus MW2; type: cell-based; settings: 16 hour minimal inhibitory concentration at 37° C.; read-out: MIC (μM) S. aureus MW2 (MRSA)
# reported log10(MIC); entries follow
Heads up, the numbers here are log10 of MIC in µM units.

Q. Query log10(MIC) for CO[C@@H]1[C@@H](OC(N)=O)[C@@H](O)[C@H](Oc2ccc3c(O)c(NC(=O)c4cccc(-c5cccc(O)c5O)c4)c(=O)oc3c2C)OC1(C)C
A. 1.90

New cases:
Q. Query log10(MIC) for CO[C@@H]1[C@@H](OC(N)=O)[C@@H](O)[C@H](Oc2ccc3c(O)c(NC(=O)c4cccc(C5CCC5)c4)c(=O)oc3c2C)OC1(C)C
A. 1.04

Q. Query log10(MIC) for CO[C@@H]1[C@@H](OC(N)=O)[C@@H](O)[C@H](Oc2ccc3c(O)c(NC(=O)c4cc(-c5ccccc5)ccc4N)c(=O)oc3c2C)OC1(C)C
A. 0.40

Q. Query log10(MIC) for CO[C@@H]1[C@@H](OC(N)=O)[C@@H](O)[C@H](Oc2ccc3c(O)c(NC(=O)c4ccc5c(ccn5C)c4)c(=O)oc3c2C)OC1(C)C
A. 1.63

Q. Query log10(MIC) for CO[C@@H]1[C@@H](OC(N)=O)[C@@H](O)[C@H](Oc2ccc3c(O)c(NC(=O)c4cc(O)c(O)c(-c5ccc6ccccc6c5)c4)c(=O)oc3c2C)OC1(C)C
A. 0.95

Q. Query log10(MIC) for CO[C@@H]1[C@@H](OC(N)=O)[C@@H](O)[C@H](Oc2ccc3c(O)c(NC(=O)c4ccc(O)c(-c5cccc6ccccc56)c4)c(=O)oc3c2C)OC1(C)C
A. 1.28

Q. Query log10(MIC) for COC1C(OC(N)=O)C(O)C(Oc2ccc3c(O)c(NC(=O)C4CCCC(C5CCCCC5)C4)c(=O)oc3c2C)OC1(C)C (mixture of isomers)
A. 0.70

Q. Query log10(MIC) for CO[C@@H]1[C@@H](OC(N)=O)[C@@H](O)[C@H](Oc2ccc3c(O)c(NC(=O)c4cccc(-c5ccc(OC(F)(F)F)cc5)c4)c(=O)oc3c2C)OC1(C)C
A. -0.04

Q. Query log10(MIC) for CO[C@@H]1[C@@H](OC(N)=O)[C@@H](O)[C@H](Oc2ccc3c(O)c(NC(=O)c4cccc(-c5ccccc5[N+](=O)[O-])c4)c(=O)oc3c2C)OC1(C)C
A. 1.59

###

test system: S. aureus MW2; assay: Minimal inhibitory concentration, S. aureus MW2; type: cell-based; conditions: Staphylococcus aureus, MRSA, 16 h, 16 hour minimal inhibitory concentration at 37° C.; read-out: MIC (μM) S. aureus MW2 (MRSA)
observedProperty: MIC (µM)
Only the number, expressed in µM, is required.

Q. Query MIC for Cc1c(O)ccc2c(O)c(NC(=O)c3ccc(I)c(-c4ccccc4)c3)c(=O)oc12
A. 97

Q. Query MIC for CO[C@@H]1[C@@H](OC(N)=O)[C@@H](O)[C@H](Oc2ccc3c(O)c(NC(=O)c4ccc(Br)c(Oc5ccccc5)c4)c(=O)oc3c2C)OC1(C)C
A. 4.5

Q. Query MIC for CO[C@@H]1[C@@H](OC(N)=O)[C@@H](O)[C@H](Oc2ccc3c(O)c(NC(=O)c4ccc5c(c4)oc4ccccc45)c(=O)oc3c2C)OC1(C)C
A. 10

Q. Query MIC for CO[C@@H]1[C@@H](OC(N)=O)[C@@H](O)[C@H](Oc2ccc3c(O)c(NC(=O)c4cccc(-c5cc[nH]n5)c4)c(=O)oc3c2C)OC1(C)C
A. 42

Q. Query MIC for CO[C@@H]1[C@@H](OC(N)=O)[C@@H](O)[C@H](Oc2ccc3c(O)c(NC(=O)c4cccc(-c5ccccc5)c4)c(=O)oc3c2C)OC1(C)C
A. 5

New cases:
Q. Query MIC for CO[C@@H]1[C@@H](OC(N)=O)[C@@H](O)[C@H](Oc2ccc3c(O)c(NC(=O)c4ccc(C5CCCCC5)cc4)c(=O)oc3c2C)OC1(C)C
A. 20

Q. Query MIC for CO[C@@H]1[C@@H](OC(N)=O)[C@@H](O)[C@H](Oc2ccc3c(O)c(NC(=O)c4cccc(Oc5ccc(C(C)(C)C)cc5)c4)c(=O)oc3c2C)OC1(C)C
A. 2.3

Q. Query MIC for CO[C@@H]1[C@@H](OC(N)=O)[C@@H](O)[C@H](Oc2ccc3c(O)c(NC(=O)c4cccc(Oc5cccc(C)c5)c4)c(=O)oc3c2C)OC1(C)C
A. 5

Q. Query MIC for CO[C@@H]1[C@@H](OC(N)=O)[C@@H](O)[C@H](Oc2ccc3c(O)c(NC(=O)C45CC6CC(CC(C6)C4)C5)c(=O)oc3c2C)OC1(C)C
A. 21

Q. Query MIC for CO[C@@H]1[C@@H](OC(N)=O)[C@@H](O)[C@H](Oc2ccc3c(O)c(NC(=O)c4cccc(-c5ccccc5C)c4)c(=O)oc3c2C)OC1(C)C
A. 10
